FYI, the data here is from patent US20100222394A1.

- MEASURED ON: recombinant human liver GK (Homo sapiens, UniProt P35557)
- Sequence (P35557 1-466 isoform P35557-2): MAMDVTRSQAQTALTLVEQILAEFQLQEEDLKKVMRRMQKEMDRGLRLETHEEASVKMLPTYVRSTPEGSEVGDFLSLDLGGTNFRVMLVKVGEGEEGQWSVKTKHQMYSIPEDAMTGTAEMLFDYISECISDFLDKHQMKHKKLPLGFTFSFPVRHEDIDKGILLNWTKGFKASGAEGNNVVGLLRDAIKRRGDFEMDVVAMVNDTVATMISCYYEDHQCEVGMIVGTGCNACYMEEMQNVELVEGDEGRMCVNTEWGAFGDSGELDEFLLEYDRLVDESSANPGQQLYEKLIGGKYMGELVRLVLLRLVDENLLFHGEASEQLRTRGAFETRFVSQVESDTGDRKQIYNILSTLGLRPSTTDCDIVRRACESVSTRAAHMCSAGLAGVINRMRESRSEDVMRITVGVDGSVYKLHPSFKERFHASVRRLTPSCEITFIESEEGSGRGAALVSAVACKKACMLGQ
- TEST NAME: biochemical
- Description: The glucokinase activity may be determined not by directly measuring glucose-6-phosphate but by measuring the level of Thio-NADH, which is produced when a reporter enzyme, glucose-6-phosphate dehydrogenase produces phosphogluconolactone from glucose-6-phosphate, and based on the level, the degree of glucokinase activity of the compound tested may be determined. […] The OD level of the DMSO control was set as 100%; and the OD level of the test compound at different concentrations was determined. […]
PROPERTY: pEC50
Note: pEC50 values are expressed as the negative base-10 logarithm of concentration in M.

Readout pEC50 for CCS(=O)(=O)c1ccc(Oc2cc(O[C@@H](C)CO)cc(C(=O)Nc3ccn(C)n3)c2)cn1.CS(=O)(=O)O [methanesulfonate] , test system recombinant human liver GK (Homo sapiens, UniProt P35557), was 7.52
